# Test system: ATP;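 note: ATP exposure 15 min at 22 °C before imaging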
# ASSAY_OVERVIEW: switch fluorescence ratio, 500 uM ATP over buffer (Cy3 cluster intensity, sum of 5 cycles each) (fold (ratio)); higher = stronger signal-on switching upon ATP binding; sequences stand for … in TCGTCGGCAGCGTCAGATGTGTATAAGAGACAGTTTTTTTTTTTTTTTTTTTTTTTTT…TC
# PROTOCOL_CONDITIONS: aptamer strand: ATP DNA aptamer (quencher-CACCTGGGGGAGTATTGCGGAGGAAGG + anchor), 100 nM annealed; ATP concentration: 500 uM
Values of switch fluorescence ratio greater than or equal to 1 map to true; values below map to false.

Check out these entries, answers already filled in.
>>> discrete_label("TTTATAAAGT")
"false"
>>> discrete_label("CCGGGTGTGG")
"true"
>>> discrete_label("CTCTCTAGCT")
"true"
>>> discrete_label("GTTTTGTGGG")
"false"

hey, is switch fluorescence ratio for this one >= 1? "CTCGGCGGAG"
true

----------
# Test system: ATP;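 note: ATP exposure 15 min at 22 °C before imaging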
# ASSAY_OVERVIEW: switch fluorescence ratio, 500 uM ATP over buffer (Cy3 cluster intensity, sum of 5 cycles each) (fold (ratio)); higher = stronger signal-on switching upon ATP binding; sequences stand for … in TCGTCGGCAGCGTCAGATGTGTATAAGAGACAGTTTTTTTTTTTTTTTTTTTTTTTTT…TC
# PROTOCOL_CONDITIONS: aptamer strand: ATP DNA aptamer (quencher-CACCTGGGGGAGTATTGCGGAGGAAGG + anchor), 100 nM annealed; ATP concentration: 500 uM
Listing of entries alongside the reported switch fluorescence ratio.
Answer using only a numeral; do not append any unit.

>>> reported("ACATAGGGGT")
1.01

Lab note: need switch fluorescence ratio with ATP for entry "GATTATTAGT" , please look it up.
1.01

Lab note: need switch fluorescence ratio with ATP for entry "TTTCGGGACG" , please look it up.
0.987

Lab note: need switch fluorescence ratio with ATP for entry "GGGGTTTATG" , please look it up.
0.975

Lab note: need switch fluorescence ratio with ATP for entry "CCCTTTTTTG" , please look it up.
1.02

Lab note: need switch fluorescence ratio with ATP for entry "AGGGTGTTAG" , please look it up.
1

Lab note: need switch fluorescence ratio with ATP for entry "AGTATTGGGT" , please look it up.
0.998

Lab note: need switch fluorescence ratio with ATP for entry "AGGATGATGC" , please look it up.
0.979

Lab note: need switch fluorescence ratio with ATP for entry "ATTGTAGTGT" , please look it up.
1.01

----------
# Tested on: ATP;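 note: ATP exposure 15 min at 22 °C before imaging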
# ASSAY_OVERVIEW: switch fluorescence ratio, 500 uM ATP over buffer (Cy3 cluster intensity, sum of 5 cycles each) (fold (ratio)); higher = stronger signal-on switching upon ATP binding; sequences stand for … in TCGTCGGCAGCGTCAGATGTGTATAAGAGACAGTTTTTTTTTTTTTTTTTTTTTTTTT…TC
# PROTOCOL_CONDITIONS: aptamer strand: ATP DNA aptamer (quencher-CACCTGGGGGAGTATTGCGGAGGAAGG + anchor), 100 nM annealed; ATP concentration: 500 uM
OBSERVABLE: switch fluorescence ratio

>>> reported("TTTATAAGTA")
1.02

Look up switch fluorescence ratio: "CAAGTTTTTG"
1.01

Look up switch fluorescence ratio: "CGCCGGCTTT"
1.02

----------
# Tested on: ATP;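 note: ATP exposure 15 min at 22 °C before imaging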
# ASSAY_OVERVIEW: switch fluorescence ratio, 500 uM ATP over buffer (Cy3 cluster intensity, sum of 5 cycles each) (fold (ratio)); higher = stronger signal-on switching upon ATP binding; sequences stand for … in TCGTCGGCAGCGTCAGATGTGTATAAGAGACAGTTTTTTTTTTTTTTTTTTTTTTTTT…TC
# PROTOCOL_CONDITIONS: aptamer strand: ATP DNA aptamer (quencher-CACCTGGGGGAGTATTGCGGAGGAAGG + anchor), 100 nM annealed; ATP concentration: 500 uM
Listing of entries alongside the reported switch fluorescence ratio.
Answer using only a numeral; do not append any unit.

Check out these entries, answers already filled in.
>>> reported("TTTCCGACGG")
1.57
>>> reported("TAATTCGTAC")
1.07
>>> reported("GCGGGGTTGG")
1.01
>>> reported("GATGAAAAAG")
1.03
>>> reported("ACTTGGAGGG")
1.01

Could you now look at the following sequence, please?
Look up switch fluorescence ratio: "GGTTTGGGG"
1.03

----------
# Test system: ATP;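 note: ATP exposure 15 min at 22 °C before imaging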
# ASSAY_OVERVIEW: switch fluorescence ratio, 500 uM ATP over buffer (Cy3 cluster intensity, sum of 5 cycles each) (fold (ratio)); higher = stronger signal-on switching upon ATP binding; sequences stand for … in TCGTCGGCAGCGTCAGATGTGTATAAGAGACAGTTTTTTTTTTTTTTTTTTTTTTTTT…TC
# PROTOCOL_CONDITIONS: aptamer strand: ATP DNA aptamer (quencher-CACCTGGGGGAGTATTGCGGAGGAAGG + anchor), 100 nM annealed; ATP concentration: 500 uM
OBSERVABLE: switch fluorescence ratio

Check out these entries, answers already filled in.
>>> reported("CGAGGGTGTA")
0.999
>>> reported("GCTTGCAGTG")
0.995
>>> reported("AGGCGGGGCG")
1.02
>>> reported("GGTATTGTGT")
1.02
>>> reported("GTTCAAAGCG")
0.999

Look up switch fluorescence ratio: "GTAGGGGGTT"
0.995

Look up switch fluorescence ratio: "ATGCGTGACA"
1.02

Look up switch fluorescence ratio: "CTATGGGTCC"
1.02

----------
Listing of entries alongside the reported switch fluorescence ratio.
# System: ATP;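 note: ATP exposure 15 min at 22 °C before imaging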
# ASSAY_OVERVIEW: switch fluorescence ratio, 500 uM ATP over buffer (Cy3 cluster intensity, sum of 5 cycles each) (fold (ratio)); higher = stronger signal-on switching upon ATP binding; sequences stand for … in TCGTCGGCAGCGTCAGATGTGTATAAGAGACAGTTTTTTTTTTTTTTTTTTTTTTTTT…TC
# PROTOCOL_CONDITIONS: aptamer strand: ATP DNA aptamer (quencher-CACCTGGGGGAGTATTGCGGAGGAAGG + anchor), 100 nM annealed; ATP concentration: 500 uM
Answer using only a numeral; do not append any unit.

Check out these entries, answers already filled in.
>>> reported("TCGATTCGGT")
1.02
>>> reported("TGGGAAAGTC")
0.993
>>> reported("TAAGAGGGGA")
1.01
>>> reported("GGTTCCGTGG")
0.994
>>> reported("CTGGTATAGA")
1
>>> reported("GTAGTTCGGG")
0.997
>>> reported("CAGATTGGGG")
1
>>> reported("ATGGAGTAAC")
0.987
>>> reported("TGGTGGGAGG")
1
>>> reported("TACTGTGTAT")
1.01

Could you now look at the following sequence, please?
Look up switch fluorescence ratio: "CCGGGGTGGG"
0.996

----------
Listing of entries alongside the reported switch fluorescence ratio.
# System: ATP;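 note: ATP exposure 15 min at 22 °C before imaging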
# ASSAY_OVERVIEW: switch fluorescence ratio, 500 uM ATP over buffer (Cy3 cluster intensity, sum of 5 cycles each) (fold (ratio)); higher = stronger signal-on switching upon ATP binding; sequences stand for … in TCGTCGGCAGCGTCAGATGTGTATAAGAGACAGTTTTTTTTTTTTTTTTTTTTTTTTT…TC
# PROTOCOL_CONDITIONS: aptamer strand: ATP DNA aptamer (quencher-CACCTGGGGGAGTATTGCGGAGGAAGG + anchor), 100 nM annealed; ATP concentration: 500 uM
Answer using only a numeral; do not append any unit.

>>> reported("TTTGACGGTA")
1.09

Look up switch fluorescence ratio: "GGGGTTCCGT"
1

Look up switch fluorescence ratio: "ATTTTGGGGA"
1

Look up switch fluorescence ratio: "CGCCATGGCC"
0.992

Look up switch fluorescence ratio: "TTTTAAGTGT"
1

Look up switch fluorescence ratio: "GTATTATTAA"
1.05

Look up switch fluorescence ratio: "TAAAGAACAT"
0.997

----------
Listing of entries alongside the reported switch fluorescence ratio.
# System: ATP;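 note: ATP exposure 15 min at 22 °C before imaging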
# ASSAY_OVERVIEW: switch fluorescence ratio, 500 uM ATP over buffer (Cy3 cluster intensity, sum of 5 cycles each) (fold (ratio)); higher = stronger signal-on switching upon ATP binding; sequences stand for … in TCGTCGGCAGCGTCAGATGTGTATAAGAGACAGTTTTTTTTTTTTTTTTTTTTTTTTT…TC
# PROTOCOL_CONDITIONS: aptamer strand: ATP DNA aptamer (quencher-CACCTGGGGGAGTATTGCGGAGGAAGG + anchor), 100 nM annealed; ATP concentration: 500 uM
Answer using only a numeral; do not append any unit.

Check out these entries, answers already filled in.
>>> reported("ATGATGAATG")
0.975
>>> reported("CGGTGAGTTG")
1.03
>>> reported("GGTTTTGAGG")
0.973
>>> reported("GATAGTTGTA")
1.01
>>> reported("TTTAGCATGT")
1.04

Lab note: need switch fluorescence ratio with ATP for entry "AGTGGCACGG" , please look it up.
1
